From: ChEMBL document CHEMBL1201862

tested on: SK-OV-3; assay: NCI tumour cell line growth inhibition, 48 h
Activity calls are given as the source filed them. No stated cut-off is given here; in the data, active = GI50 up to about 1.1 µM and inactive = higher.
The entries below come with measured GI50 values attached.
assay readout: GI50

molecule | study target | assay readout | result
CCOC(=O)c1c(-c2ccc(OC)cc2)c(C#N)c(=S)n(C2OC(CO)C(O)C(O)C2O)c1-c1ccccc1 (stereo not given) | SK-OV-3 | GI50 | 90.6 µM (inactive)
COC(=O)C1(O)C(c2ccccc2)=NC2(C)CCCC21 (stereo not given) | SK-OV-3 | GI50 | > 100 µM (inactive)
O=C1c2ccccc2C2(O)NC(=S)N(c3ccccc3)C12O (stereo not given) | SK-OV-3 | GI50 | > 100 µM (inactive)
CCOC(=O)[N-]c1ccc(S(=O)(=O)[O+](C)CCl)cc1.CCOC(=O)[N-]c1ccc(S(=O)(=O)[O+](C)CCl)cc1.NC(=O)N=O.NC(=O)OCCCl | SK-OV-3 | GI50 | > 100 µM (inactive)
NS(=O)(=O)c1ccc(/N=N/c2cc3ccccc3c(C(=O)O)c2O)cc1 | SK-OV-3 | GI50 | > 66.4 µM (inactive)
c1ccc([P+](CCC[P+](c2ccccc2)(c2ccccc2)c2ccccc2)(c2ccccc2)c2ccccc2)cc1 | SK-OV-3 | GI50 | > 100 µM (inactive)
O=C1C(c2ccccc2)=C(c2ccccc2)C1(Cl)Cl | SK-OV-3 | GI50 | 15.8 µM (inactive)
C/C(=N\O)C1CC2C=C(C#N)C1N(Cc1ccccc1)C2 (stereo not given) | SK-OV-3 | GI50 | > 100 µM (inactive)
NC(=O)C(c1ccccc1)N1OC2C(=O)N(c3cccc4ccccc34)C(=O)C2C1c1c2ccccc2c(Cl)c2ccccc12 (stereo not given) | SK-OV-3 | GI50 | 19 µM (inactive)
NS(=O)(=O)c1ccc(NC(=O)C2C(=O)C(=O)N(c3ccc(S(N)(=O)=O)cc3)C2=O)cc1 (stereo not given) | SK-OV-3 | GI50 | > 100 µM (inactive)
CCOC1NC(/N=C/c2ccc(OC)cc2)=C(C#N)C1C#N (stereo not given) | SK-OV-3 | GI50 | 80.4 µM (inactive)
Cc1ccnc(NC(=S)Nc2ccccc2Cl)c1 | SK-OV-3 | GI50 | 83.8 µM (inactive)
O=C(CC1(O)C(=O)Nc2ccccc21)c1ccc2ccccc2c1 (stereo not given) | SK-OV-3 | GI50 | > 100 µM (inactive)
NCc1ccccc1C1CSCSC1 | SK-OV-3 | GI50 | > 100 µM (inactive)
CCO/C(CCn1[nH]c(=O)c(Cl)c(Cl)c1=O)=N\NC(=O)C(=O)NN | SK-OV-3 | GI50 | > 100 µM (inactive)
